Test system: KM12 colon
Assay: NCI-60 one-dose screen, 48 h (100 = growth as untreated, 0 = no growth, -100 = all killed)
Conditions: 10 µM unless noted
This is part of a sample that, as a whole, favours compounds with a hit. Of some 83,000 tested, about 20% had one in any assay.
Assignment: determine reported growth for the given compounds.
Give bare numbers, in %.

{"columns": ["compound", "parameterMeasured", "recordedNumber"],
 "data": [
  ["O=C1Nc2ccccc2/C1=N/c1nc(-c2ccc(Cl)cc2)cs1", "growth", 70.8],
  ["CCCCCCCCN1C(=O)/C(=c2\\sc3n(c2=O)C2C(NN=3)N(CC)C(=O)N2CC)c2ccccc21 (centres undefined)", "growth", 89.9],
  ["COc1ccc(C(=O)c2cc3c(N)c(C(=O)Nc4cccc(Br)c4C)sc3nc2C)cc1", "growth", 11.3]
]}

Query: Please state recorded growth (tested on KM12 colon) of "Clc1nc(Cl)c2ncn(CCOCCn3cnc4c(Cl)nc(Cl)nc43)c2n1"
Reply: -85.9

----------
System: M14 melanoma
Assay: NCI-60 one-dose screen, 48 h
Settings: 10 µM unless noted
This is part of a sample that, as a whole, favours compounds with a hit. Of some 83,000 tested, about 20% had one in any assay. Activity calls are given as the source filed them. The calls were made as follows: active = growth percent below 10; inactive = the rest.
I would appreciate it if you answered using one of these outcomes: active, inactive

A selection of reference data follows.
{"columns": ["compound", "assignedLabel"],
 "data": [
  ["COc1cc2nc(Cc3ccc(C)cc3)[nH]c(=O)c2cc1OC", "inactive"],
  ["COc1cc2nc(-c3ccc(C#N)cc3)[nH]c(=O)c2cc1OC", "inactive"],
  ["CCCCc1ccc(Nc2nnc(SCC(=O)NC(=O)NCC)s2)cc1", "inactive"],
  ["O=C(O)CNC(=O)CN1C(=O)c2ccccc2C1=O", "inactive"],
  ["Fc1ccc(C2CC(c3cccc(Nc4ccncc4)c3)=NN2c2ccccc2)cc1 (centres undefined)", "inactive"]
]}

Query: # outcome recorded in this test, key = "COc1ccccc1OCC(=O)N1CCCCCC1"
Reply: inactive

Query: Check the results log: what was the call for "O=C1Nc2c(ccc(Cl)c2Cl)/C1=C/c1ccc(F)cc1" ?
Reply: inactive

Query: How did this test come out for "COc1cccc2cc(-c3cc4ccccc4[nH]3)/c(=N/C(=S)Nc3ccc(C)cc3)oc12" ?
Reply: inactive

----------
Tested on: SN12C renal
Experiment: NCI-60 one-dose screen, 48 h
Details: 10 µM unless noted
Compounds without any hit were thinned out: in the full panel of roughly 83,000, 20% have a hit. The source made the active and inactive calls. How the source made its calls: active means growth percent below 10; inactive means the rest.
// allowed return values: TRUE for active, FALSE for inactive

{"columns": ["compound", "assignedLabel"],
 "data": [
  ["CCCCCCOc1ccc(/C=N/Nc2cc(C)nc3ccc(Br)cc23)cc1", "TRUE"],
  ["O=C(CSc1nc2sc3c(c2c(=O)n1Cc1ccccc1)CCCC3)N1CCN(c2ccccc2)CC1", "FALSE"],
  ["Cc1ccc(-c2c(Br)c(OC(=O)CO[C@@H]3C[C@H](C)CC[C@H]3C(C)C)c(-c3ccc(C)cc3C)c(Br)c2OC(=O)CO[C@H]2C[C@@H](C)CC[C@@H]2C(C)C)c(C)c1", "FALSE"],
  ["O=C(Nc1nc(-c2ccccc2Cl)cs1)c1cc(-c2ccccc2)nc2ccc(Cl)cc12", "FALSE"],
  ["COc1cnccc1-c1nc2ccc3[nH]ncc3c2c2c1CCCC2", "FALSE"],
  ["O=C(N/N=C/c1ccc(F)cc1)c1ccccc1Nc1cccc(C(F)(F)F)c1", "FALSE"],
  ["C=C1C(=O)O[C@H]2[C@H]1CC/C(CNC(=O)/C=C/c1ccccc1F)=C\\CC[C@@]1(C)O[C@@H]21", "TRUE"],
  ["CC(O)/C=C/C=C/C(O)CC/C=C/C(=O)NCC(C)(C)O (centres undefined)", "FALSE"],
  ["COc1ccc(C(=O)/C=C/c2ccc(OCc3ccccc3)c(OC)c2)cc1OC", "FALSE"],
  ["O=C(CN1CCOCC1)Nc1ccc2ncnc(Nc3ccc(Oc4cccc(C(F)(F)F)c4)c(Cl)c3)c2c1", "FALSE"]
]}

Query: Kindly provide the recorded test outcome for the following compound: COc1cc(C2CC(c3cccc(Nc4ccncc4)c3)=NN2c2ccccc2)cc(OC)c1OC (centres undefined)
Reply: FALSE

Query: Record request — test call for "COc1ccc(C(=O)c2cc3c(N)c(C(=O)Nc4cccc(Cl)c4C)sc3nc2C)cc1"
Reply: FALSE

Query: I'd appreciate the recorded outcome for "FCc1nc2nc(Cl)c(Cl)nc2[nH]1" from this test.
Reply: FALSE

Query: What is the recorded call for this compound in the test? "C#Cc1cccc(NC(=O)Nc2ccc(NC(=O)CCl)cc2)c1"
Reply: TRUE

Query: Short answer needed: outcome of this test for COc1ccc(C(O)c2cc3c(N)c(C(=O)Nc4ccc(Cl)cc4)sc3nc2C)cc1 (centres undefined) ?
Reply: FALSE

Query: What did the test return for "CCCCCCCCOc1ccc(/C=N/Nc2cc(C)nc3ccc(Cl)cc23)cc1" ?
Reply: TRUE

Query: Fill in: this test's call for "CC(=O)CCSc1ccc(OC(C)=O)cc1" is ___
Reply: FALSE

Query: Please share the test call associated with "COc1cc2nc(-c3ccc(C(F)(F)F)cc3)cc(OCCN3CCCC3)c2cc1OC" .
Reply: FALSE

Query: // param item: "Cc1ccc(/C=C/C(=O)c2ccc(N)cc2)c(C)c1" ; yields the recorded call
Reply: TRUE

Query: Kindly provide the recorded test outcome for the following compound: "CCCCCCCCCCN=C(N)N=C(N)N"
Reply: TRUE

Query: Hello, I am checking results. What call was entered for "O=S(=O)(NCCCNc1nccc(-c2c(-c3ccccc3)nc3occn23)n1)c1ccc(Cl)cc1" ?
Reply: FALSE

Query: Would you mind telling me which call this test gave "C=C(C)[C@@H]1CC[C@]2(C(=O)NCCCN(CCC#N)CCC#N)CC[C@]3(C)[C@H](CC[C@@H]4[C@@]5(C)CCC(=O)C(C)(C)[C@@H]5CC[C@]43C)[C@@H]12" ?
Reply: FALSE

Query: For this compound, state the assay outcome: CC(C)NC(=O)N1C(=O)CCC1NNC(=O)c1ccc([N+](=O)[O-])cc1 (centres undefined)
Reply: FALSE

Query: recorded result category for "O=c1[nH]c(=O)[nH]c(=S)[nH]1" in this test
Reply: FALSE

----------
Test system: PC-3 prostate
Experiment: NCI-60 one-dose screen, 48 h
Conditions: 10 µM unless noted
Protocol: Growth inhibition of the PC-3 human tumor cell line is measured as a screen for anti-cancer activity. Cells are grown in 96 well plates and exposed to the test compound for 48 hours. Compounds are tested at a single concentration, which is 10^-5 M for most compounds. The reported endpoint is percent growth (GI% or GIPRCNT), where numbers from 0 - 100% represent growth inhibition, and numbers from -100% - 0 represent cell death. For example, a value of 40 represents 60% growth inhibition. […]
This is part of a sample that, as a whole, favours compounds with a hit. Of some 83,000 tested, about 20% had one in any assay. Active and inactive are the calls of the source. How the source made its calls: active means growth percent below 10; inactive means the rest.
Answer with one of the outcomes given here: active, inactive

Query: # outcome recorded in this test, key = "CCOC(=O)N1CCc2c(sc3nc4nc[nH]n4c(=O)c23)C1"
Reply: inactive

Query: Given "CN1CCN(Cc2ccc(NC(=O)c3cncc(C#Cc4cnccc4C(F)(F)F)c3)cc2C(F)(F)F)CC1" , state the outcome it received in this test.
Reply: inactive

Query: Short answer needed: outcome of this test for "COc1ccc(-c2nc(N/N=C/c3cccc(Br)c3)nc(N3CCOCC3)c2C#N)cc1" ?
Reply: inactive

Query: For "Cn1c2c(Cl)c(Cl)ccc2c2cc(N)[nH]c(=O)c21" , which call appears in the assay record?
Reply: inactive

Query: Recorded test call requested for "CC(=O)Nc1ccc(S(=O)(=O)NC2CCCCC2)cc1"
Reply: inactive

----------
Test system: HCT-15 colon
Experiment: NCI-60 one-dose screen, 48 h
Settings: 10 µM unless noted
This is part of a sample that, as a whole, favours compounds with a hit. Of some 83,000 tested, about 20% had one in any assay. The source made the active and inactive calls. Rule for the calls: active = growth percent below 10; inactive = the rest.
The reply should name one outcome from yes for active, no for inactive

Check out these entries, answers already filled in.
{"columns": ["compound", "assignedLabel"],
 "data": [
  ["CC[N+](CC)(CCCC(C)[N+]1(Cc2ccccc2)C(C)=CC=C1C)Cc1ccccc1 (stereo unspecified)", "no"],
  ["COc1cc2c(cc1[N+](=O)[O-])-c1ccc([N+](=O)[O-])cc1/C2=N\\O", "no"],
  ["COc1cc(C2CC(c3cccc(Nc4ccncc4)c3)=NN2c2ccc(Cl)cc2)cc(OC)c1OC (stereo unspecified)", "yes"],
  ["CN1CCN(c2c(F)cc(NC3=C(Cl)C(=O)c4ncccc4C3=O)cc2F)CC1", "no"],
  ["COc1ccc(/C=C(/c2ccccc2)[N+](=O)[O-])cc1", "yes"]
]}

Query: Could you please tell me the result logged for "COc1cc2nc(-c3ccc(C#N)cc3)[nH]c(=O)c2cc1OC" in this assay?
Reply: no

Query: Hello, I am checking results. What call was entered for COc1ccc(C2CC(c3cccc(Nc4ccncc4)c3)=NN2c2ccc(Cl)cc2)cc1 (stereo unspecified) ?
Reply: yes

Query: Which outcome was assigned to "O=S(=O)(O)c1cc(O)c2c(N=Nc3ccc(Nc4ccccc4)c4c(S(=O)(=O)O)cccc34)cc(S(=O)(=O)O)cc2c1" in this test?
Reply: no
